From: PubChem BioAssay (NCI)

system: OVCAR-4 ovarian; experiment: NCI tumour cell line growth inhibition, 48 h; in the data active means GI50 below about 0.43 µM; inactive means the rest
Hello, when you answer, please use one of the following outcomes: active, inactive

Cc1cc(Nc2cc(N3CCN(C)CC3)nc(Sc3ccc(NC(=O)C4CC4)cc3)n2)n[nH]1 : inactive

Exercise: Recorded test outcome, item Cc1c(C(N)=O)sc2c1c(=O)n(Cc1ccccc1)c1nnc(-c3ccc(Br)cc3)n21
Key: inactive

Exercise: Recorded test call requested for COc1cc(NCCN=C(N)NC(N)=NC(C)C)c2ncccc2c1
Key: active

Exercise: Query: recorded result category for CCS(=O)(=O)c1ccc(OC)c(Nc2ncc(-c3ccccc3Cl)o2)c1 in this test
Key: inactive

Exercise: Assay outcome for O=C(NCc1ccco1)c1cccc(NC2=C(Cl)C(=O)N(Cc3ccccc3)C2=O)c1 : what was it?
Key: inactive

Exercise: Any idea what this test logged for O=C(Nc1cc(Oc2cc(F)c(NC(=O)C3(C(=O)Nc4ccc(F)cc4)CC3)cc2F)ccn1)C1CC1 ?
Key: inactive

Exercise: Could you please tell me the result logged for Cc1cc(Cl)ccc1Nc1nc(C(F)(F)F)ccc1C(=O)N/N=C/c1ccccc1Cl in this assay?
Key: active

Exercise: Which result was noted for this molecule in the test: O=C(CC(=O)c1cccc(Cl)c1)c1cccc(Cl)c1
Key: inactive

Exercise: // param item: O=C(c1ccccc1)n1c(-c2ccccc2)cs/c1=N\S(=O)(=O)c1ccc(N2N=C3c4ccccc4CC3C2c2cccs2)cc1 (stereo not given) ; yields the recorded call
Key: inactive

Exercise: So what was the verdict on O=S(=O)(Nc1ccc(F)c(Cl)c1)c1ccc(-c2cnc(C3CC3)o2)cc1 in this test?
Key: inactive

Exercise: // outcome(item) with item = N#CN1CC[C@H](C(=O)Nc2cc3cc(C(N)=O)ccc3cn2)C1
Key: active

Exercise: What is the recorded call for this molecule in the test? ClCc1cccc(CSc2ncnc3c2ncn3Cc2cccc(CCl)c2)c1
Key: inactive
